B1: glmS ribozyme (parent)
chain: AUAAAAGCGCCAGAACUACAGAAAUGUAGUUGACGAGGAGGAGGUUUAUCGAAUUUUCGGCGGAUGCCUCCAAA

variants of: B1; experiment: self-cleavage kobs at 40 uM GlcN6P; higher = faster cleavage; RNA array; settings: with glucosamine-6-phosphate
Variants at the floor of the assay were thinned out.
EXPERIMENTAL ENDPOINT: self-cleavage kobs at 40 uM GlcN6P

>>> test_result("AUAAAAGCGCCAGAACUACAGAAAUGUAGUUGACUAGGAGGAGGUUUAUCGAAUUUUCGGCGGAUCUCUCCAAA [G35U G66C C67U]")
"< 1e-05 s⁻¹"
>>> test_result("AUAAAAGCGCCUGCACUACAGAAAUGUAGUUGACGAGGAGGAGGUUUAUCGAAUUUUCGGCGGAUGCCUCCAAA [A12U A14C]")
"0.000142 s⁻¹"
>>> test_result("AUAAAAGCGCCAGAACUACAGAAAUGUAGUUGACGAGGAGGAGGUUUAUCGAAUGUUCGGCGGAUGCCUACAAA [U55G C70A]")
"5.03e-05 s⁻¹"
>>> test_result("AUAAAAGCGCCAGAACUACAGAAAUGUAGUUGACGAGGAGGAGGUUUAUCGAAUUUUCGGCGGGUGACUCCAAA [A64G C67A]")
"9.53e-05 s⁻¹"
>>> test_result("AUAAAAGUGCCAGAACUACAGAAAUGUAGUUGACGAGGAGGAGGUUUAUCGAAUUUUCGGCUGAUGCCGCCAAA [C8U G62U U69G]")
"0.00021 s⁻¹"
>>> test_result("AUAAAAACGCCAGAACUACAGAAAUGUAGUUGACGAGGAGGAGGUUUUUCGAAUUGUCGGCGGAUGCCUCCAAA [G7A A48U U56G]")
"< 1e-05 s⁻¹"
>>> test_result("AUAAAGGCGCCAGGACUACAGAAAUGUAGUUCACGAGGAGGAGAUUUAUCGACUUUUCGGCGGAGGCUUCCAAA [A6G A14G G32C G44A A53C U65G C68U]")
"< 1e-05 s⁻¹"
>>> test_result("AUAAAAGCGCCAGAACUACAGAAAUGUAGUUGGCGAGGAGGAGGUUUAUCGAAUUUUCGGCGGACGCCUCAAAA [A33G U65C C71A]")
"< 1e-05 s⁻¹"

// each variant listed below needs its self-cleavage kobs at 40 uM GlcN6P
1. AUAAAAGCGCCAGAACUACAGAAAUGUAGUUGGCGAGGAGGAGGUUUAUCUAAUUUUCGGCGGAUGCCUCCAAA [A33G G51U]
2. AUAAAAGCGCCAGAAAUACAGAAAUGUAGUUGACGACGAGGAGGUUUUCCGGAUUUUCGGCCGAUGCCUCCAAA [C16A G37C A48U U49C A52G G62C]

(A)
["< 1e-05 s⁻¹", "< 1e-05 s⁻¹"]
